Values from patent US20230235054A1

Listed here: items and their measured pH inflection point.
# ASSAYED_SYSTEM: T1, recombinant human Nectin4 antigen (human, UniProt Q96NY8 32-349)
# T1 construct: construct not described
# T1 sequence (looked up): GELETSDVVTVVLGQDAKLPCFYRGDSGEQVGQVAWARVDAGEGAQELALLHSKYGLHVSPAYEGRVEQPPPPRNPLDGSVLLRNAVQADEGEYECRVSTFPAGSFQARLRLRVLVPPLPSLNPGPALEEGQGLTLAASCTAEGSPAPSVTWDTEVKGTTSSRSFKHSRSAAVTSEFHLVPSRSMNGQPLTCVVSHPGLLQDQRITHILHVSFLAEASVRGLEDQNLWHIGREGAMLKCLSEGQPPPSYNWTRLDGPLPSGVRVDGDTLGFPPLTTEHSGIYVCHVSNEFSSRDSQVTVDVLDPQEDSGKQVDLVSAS
# ASSAY_METHOD_TEXT: pH range ELISA, 30 ng/mL, pH of 50% binding activity
# Protocol: 1) Coat ELISA plates with 100 μL of 1 μg/mL recombinant human Nectin4 antigen in carbonate-bicarbonate coating buffer [0462] 2) Cover plates with sealing film and incubate overnight at 4° C. […] 3) Decant plates and tap out residual liquid on a stack of paper towels [0464] 4) Wash wells twice by dispensing 200 μL of various pH incubation buffer to the wells and completely aspirate the contents [0465] 5) Add 200 μL of various pH incubation buffers (pH5.5, 6.0, 6.2, 6.5, 6.7, 7.0 and 7.4) to the wells. […]

| BINDER | pH inflection point (pH) |
| --- | --- |
| BAP-143-06-33-03 (antibody, V domains shown, Used as a conjugate with a linker payload (CAB ADC)) VH: QVQLVQSGAEVKKPGASVKVSCKASGFTFSSYNMNWVRQARGQRLEWIGYISSSSSTIYYADSVKGRFTISRDNSKNTLYLQMNSLRAEDTAVYYCARAYYYGMDKWGQGTLVTVSS VL: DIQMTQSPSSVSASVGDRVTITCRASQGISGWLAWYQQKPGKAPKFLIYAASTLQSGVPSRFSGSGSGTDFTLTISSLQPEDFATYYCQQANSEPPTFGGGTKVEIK | 6.85 |
| BAP-143-00-01 (antibody, V domains shown, Used as a conjugate with a linker payload (CAB ADC)) VH: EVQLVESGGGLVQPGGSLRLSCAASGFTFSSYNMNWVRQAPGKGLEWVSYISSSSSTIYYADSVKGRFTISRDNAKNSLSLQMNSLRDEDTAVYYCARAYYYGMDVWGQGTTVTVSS VL: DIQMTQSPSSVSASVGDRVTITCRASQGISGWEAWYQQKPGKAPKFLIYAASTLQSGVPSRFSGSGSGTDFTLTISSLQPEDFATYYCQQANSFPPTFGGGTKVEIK | 6.58 |
| BAP-143-06-33-16 (antibody, V domains shown, Used as a conjugate with a linker payload (CAB ADC)) VH: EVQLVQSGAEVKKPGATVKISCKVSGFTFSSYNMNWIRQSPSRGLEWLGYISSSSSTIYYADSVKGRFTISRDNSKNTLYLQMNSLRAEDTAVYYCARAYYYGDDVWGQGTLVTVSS VL: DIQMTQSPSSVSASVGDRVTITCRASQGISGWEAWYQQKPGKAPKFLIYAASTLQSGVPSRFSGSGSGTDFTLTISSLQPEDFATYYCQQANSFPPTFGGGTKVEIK | 6.6 |
